Assay: sensitizers of A549 cells to miR-34 induction, primary screen, imaging, A549 dox-inducible miR-34, nuclei and caspase counts (AID 1347080)
Conditions: A549 miR-34 inducible, Hoechst nuclei count, 48 h; measured here: relative caspase fold change +Dox/-Dox
# fold change annotations
quantityMeasured: fold change

| molecule | endpointValue |
| --- | --- |
| CN1CCCN(C(c2ccccc2)c2ccc(Cl)cc2)CC1 (stereo not given) | 1.48 |
| CC(=O)N[C@@H](CCC(N)=O)C(=O)O | 0.675 |
| C=C1CC[C@H](O)C/C1=C/C=C1\CCC[C@]2(C)[C@@H]([C@H](C)/C=C/[C@H](C)C(C)C)CC[C@@H]12 | 1.53 |
| O=C1OC(=O)C2C3CCC(O3)C12 (stereo not given) | 0.974 |
| CC(=O)c1ccc2c(c1)N(CCCN1CCC(CCO)CC1)c1ccccc1S2 | 0.592 |
| CN(C)CCCO[C@@H]1[C@H]2OC(C)(C)O[C@H]2O[C@@H]1[C@H](O)CO | 1.16 |
| C[N+](C)(C)CC[N+]1(C)Cc2c(Cl)c(Cl)c(Cl)c(Cl)c2C1 | 1.79 |
| COc1ccc(-c2coc3cc(O)cc(O)c3c2=O)cc1 | 0.917 |
| O=C(O)Cc1sc(-c2ccccc2)nc1-c1ccc(Cl)cc1 | 0.944 |
| C[C@@H]1C[C@H]2[C@@H]3CCC4=CC(=O)C=C[C@]4(C)[C@@]3(Cl)[C@@H](O)C[C@]2(C)[C@@]1(OC(=O)c1ccco1)C(=O)CCl | 1.68 |

* * *

Assay: CellTiter-Glo luminescent readout of SW480 viability loss, NPC library primary (AID 1117343)
Conditions: CellTiter-Glo luminescence; at 20 µM (top of the series) unless noted
Calls of active or inactive are those of the source.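 Rule for the calls: active = compounds that lower viability of the colon cancer cells in the luminescence readout, with no numeric limit stated; inactive = the rest.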
# viability decrease (inhibition) annotations

| molecule | viability decrease (inhibition) |
| --- | --- |
| CCCC(=O)OCOC(=O)C1=C(C)NC(C)=C(C(=O)OC)C1c1cccc(Cl)c1Cl (stereo unspecified) | 6.5% (inactive) |
| CSc1ccc(C(=O)c2[nH]c(=O)[nH]c2C)cc1 | 29% (inactive) |
| CC(S)C(=O)NCC(=O)O (stereo unspecified) | 46.8% (inactive) |
| O=C(NCC(O)CO)c1c(I)c(C(=O)NCC(O)CO)c(I)c(N(CCO)C(=O)CO)c1I (stereo unspecified) | 15.5% (inactive) |
| CCN[C@H]1CN(CCCOC)S(=O)(=O)c2sc(S(N)(=O)=O)cc21 | 7.5% (inactive) |
| CCCCCCCCCCCCCCCCNc1ccc(C(=O)O)cc1 | 72.6% (active) |
| CN(C(=O)C(Cl)Cl)c1ccc(OC(=O)c2ccco2)cc1 | 4.3% (inactive) |
| CCc1cc(Cl)c(OC)c(C(=O)NC[C@@H]2CCCN2CC)c1O | 58.3% (active) |
| O=C(O)CCn1c2c(c3ccccc31)C[C@H](NS(=O)(=O)c1ccc(F)cc1)CC2 | -25.4% (inactive) |
| Cc1ccc2c(c1)c1c3n2CCNC3CCC1 (stereo unspecified) | 73.4% (active) |
| CCOC(=O)[C@H](CCc1ccccc1)N[C@H]1CS[C@H](c2cccs2)CN(CC(=O)O)C1=O | -29% (inactive) |

* * *

# nuclear beta-catenin stimulation annotations
Test: stimulators of nuclear beta-catenin in C2C12, primary screen, imaging, WNT3A-conditioned medium, mouse C2C12, NPC library (AID 1117326)
Conditions: at 10 µM, stronger effect = higher value

| compound | unitsText | nuclear beta-catenin stimulation |
| --- | --- | --- |
| C[C@H](O)CN(C)C | % | -0.1 |
| CCN(C)C(=O)Oc1cccc([C@H](C)N(C)C)c1 | % | -0.2 |
| Cc1cc(=O)c2c(O)c3c(O)cc(=O)c4c3c3c(cc(O)c1c23)C(C)(C)C=4O | % | 46.6 |
| NC(=O)N[C@@H](CCC(=O)O)C(=O)O | % | -0.1 |
| CN(C(=O)C(Cl)Cl)c1ccc(OC(=O)c2ccco2)cc1 | % | 16.4 |
| CC(CN(C)C)C(C)(O)Cc1ccc(Cl)cc1 (stereo not drawn) | % | -2 |
| NC(=O)c1ncn([C@@H]2O[C@H](CO)[C@@H](O)[C@H]2O)c1N | % | 1.3 |
| COc1cc(C(=O)NCCCCCC(=O)O)cc(OC)c1OC | % | -0.1 |
| Clc1cc(Cl)c(OCC#CI)cc1Cl | % | 62.3 |
| CC1CCC(C(C)C)C(OC(=O)c2ccccc2O)C1 (stereo not drawn) | % | -1.1 |
| CCOC(=O)c1ccc(O)cc1 | % | -0.6 |
| CCNC(=O)/C=C/c1cccc(Br)c1 | % | 0.9 |
| CC(=O)NCCCS(=O)(=O)O | % | -1.9 |
| CC[C@H](c1ccc(O)cc1)[C@@H](CC)c1ccc(O)cc1 | % | 11.6 |
| CN(C)CCN1C(=O)c2ccccc2N(C)c2ccccc21 | % | 0.8 |
| O=c1cc[nH]c(=O)[nH]1 | % | 2.3 |
| CCCOc1cc(N)ccc1C(=O)OCCN(CC)CC | % | 0 |
| O=C(O)Cn1c(C(=O)Nc2nc(-c3ccccc3Cl)cs2)cc2ccccc21 | % | 0.7 |
| CCN(CC)CCNC(=O)c1c(C)[nH]c(/C=C2\C(=O)Nc3ccc(F)cc32)c1C | % | 0.3 |
| OC1(c2ccc(Cl)c(C(F)(F)F)c2)CCN(CCCC(c2ccc(F)cc2)c2ccc(F)cc2)CC1 | % | -2.1 |
| Cl/C(=C\n1cncn1)c1ccc(Cl)cc1Cl | % | 3.9 |
| CC(C)=CCC[C@@](C)(O)[C@H]1CC=C(C)CC1 | % | 1.8 |
| CCOC(=O)[C@@](C)(N)Cc1ccc(O)c(O)c1 | % | 0.6 |
| O=C(N/N=C/c1ccc([N+](=O)[O-])o1)c1ccc(O)cc1 | % | 18.2 |
| C[S+](CC[C@H](N)C(=O)O)C[C@H]1O[C@@H](n2cnc3c(N)ncnc32)[C@H](O)[C@H]1O (stereo partly drawn) | % | 0.8 |
| Cc1cc(-n2nc3ccc(Cl)cc3n2)c(O)c(C(C)(C)C)c1 | % | 3.3 |
| CC(C)(CO)[C@@H](O)C(=O)NCCC(=O)NCCSSCCNC(=O)CCNC(=O)[C@H](O)C(C)(C)CO | % | 0 |
| Clc1ccc(Nc2nnc(Cc3ccncc3)c3ccccc23)cc1 | % | -2.6 |
| NC(=O)C(c1ccccc1)(c1ccccc1)[C@@H]1CCN(CCc2ccc3c(c2)CCO3)C1 | % | 0.1 |
| CC(C)C[C@H](NC(=O)[C@H](CCc1ccccc1)NC(=O)CN1CCOCC1)C(=O)N[C@@H](Cc1ccccc1)C(=O)N[C@@H](CC(C)C)C(=O)[C@@]1(C)CO1 | % | 106 |
| COc1cc(C=O)ccc1O | % | 1.6 |
| CCCCc1ncc(/C=C(\Cc2cccs2)C(=O)O)n1Cc1ccc(C(=O)O)cc1 | % | 0.4 |
| FC(F)(F)C(F)(F)C(F)(F)C(F)(F)C(F)(F)C(F)(F)C(F)(F)C(F)(F)Br | % | -0.6 |
| O=C1NC(=O)[C@@]2(CCOc3ccc(F)cc32)N1 | % | -1.1 |
| CCOC(=O)c1cnc2c(cnn2CC)c1NN=C(C)C | % | -1.1 |
| C[C@@H]1CCC[C@H](C)N1 | % | 1.3 |
| C=CCNC(N)=S | % | 5.1 |
| CCCCCCC[N+](CC)(CC)CCCCc1ccc(Cl)cc1 | % | 1.5 |
| CNCCc1ccccn1 | % | 0.2 |
| CC[C@H](C)[C@H](N)C(=O)O | % | 2.1 |
| CC(C(=O)O)c1ccc(C(=O)c2ccccc2)s1 (stereo not drawn) | % | 0.5 |
| NC(=O)OCC(O)COc1ccc(Cl)cc1 (stereo not drawn) | % | -1.4 |
| NC(=O)c1cc[n+](CC2=C(C(=O)[O-])N3C(=O)[C@@H](NC(=O)Cc4cccs4)[C@H]3SC2)cc1 | % | -2.2 |
| Cc1cc2nc3ccc(=[N+](C)C)cc-3sc2cc1N | % | 21.6 |
| Cc1cccc(C)c1NC(=O)c1ccccc1C(=O)O | % | 0.1 |
| O=P(O)(O)C(O)(Cn1ccnc1)P(=O)(O)O | % | 0.4 |
| CCCCC(=O)O[C@]1(C(=O)CO)CC[C@H]2[C@@H]3CCC4=CC(=O)CC[C@]4(C)[C@H]3[C@@H](O)C[C@@]21C | % | -1.9 |
| O=C(O)[C@H](O)c1ccccc1 | % | 3.7 |

* * *

# viability annotations
Assay: ovarian cancer cell viability with rucaparib, profiling panel, oncology-focused library, rucaparib conditional (AID 1508598)
Conditions: patient-derived ovarian cancer cells, CellTiter-Glo viability, 144 h; at 0.0781 µM; OCI-C5x cells; with rucaparib 10 µM; stronger effect = lower value; 100% = cells with rucaparib alone

| compound | unitsText | viability |
| --- | --- | --- |
| O=c1[nH]c(=O)n([C@H]2CCCO2)cc1F | % | 104 |
| Nc1cccc2c1CN(C1CCC(=O)NC1=O)C2=O (stereo not given) | % | 120 |
| CCN(CC)CCNC(=O)c1c(C)[nH]c(/C=C2\C(=O)Nc3ccc(F)cc32)c1C | % | 118 |
| CC/C(=C(\c1ccccc1)c1ccc(OCCN(C)C)cc1)c1ccccc1 | % | 99.2 |
| Cc1nc(Nc2ncc(C(=O)Nc3c(C)cccc3Cl)s2)cc(N2CCN(CCO)CC2)n1 | % | 68.4 |
